All figures here come from paper PMC9860126.

Target: HpNikR K31A (Helicobacter pylori G27, UniProt A1YSQ9 1-148, K31A)
Assay: fluorescence anisotropy; apo (no Ni); FA: 5 nM DNA, 20 mM Tris pH 7.6, 100 mM NaCl, 3 mM MgSO4, temperature not stated (Ni loading 1.2 eq NiSO4 per monomer at RT). EMSA: 20 mM Tris pH 7.5, 100 mM KCl, 3 mM MgCl2, 0.1% IGEPAL, 5% glycerol, 0.1 mg/ml herring sperm DNA, RT; gel with 800 uM NiSO4 at 4 C
Conditions: protein: recombinant; tags: none stated; chain copies: 4; label: fluorescein on internal thymine (T14 of strand 1); blunt
pKd: −log10 of the molar value.

binder | pKd
ureA promoter 32 bp (FA) (dsDNA) DNA 1: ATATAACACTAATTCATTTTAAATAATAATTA DNA 2: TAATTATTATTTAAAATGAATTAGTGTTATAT | 5.64
ureA-perf promoter 32 bp (dsDNA) DNA 1: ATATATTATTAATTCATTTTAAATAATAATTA DNA 2: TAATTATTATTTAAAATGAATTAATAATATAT | 5.89
